SYSTEM UNDER TEST: T1, human activated protein C (human, UniProt P04070 43-197; P04070 212-461)
T1 construct: In the plasma assays aPC is generated in human plasma with Protac; also called aPC; haPC
TEST: direct antigen coating ELISA (KD ELISA) of Fab periplasmic extract, anti-c-myc HRP
Recorded Bmax values for a group of binders are listed next.

// solved cases for Bmax follow
# BINDER, Bmax
measured = [
    ("HAPC-14-R1-1H1-F2 (Fab, V domains shown, Single-site mutant Fab of HAPC-14 in periplasmic extract) VH: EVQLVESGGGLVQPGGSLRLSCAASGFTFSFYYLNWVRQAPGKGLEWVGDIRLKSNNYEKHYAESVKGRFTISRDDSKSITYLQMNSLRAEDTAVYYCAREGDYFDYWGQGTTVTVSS VL: DIQLTQSPSSLSASVGDRVTITCRASESVDSFGATFMHWYQQKPGKAPKLLIYLASNLESGVPSRFSGSGSGTDFTLTISSLQPEDFATYYCQQNNEDPYTFGQGTKLEIK", 0.278),
    ("HAPC-14-R1-2L6-G1 (Fab, V domains shown, Single-site mutant Fab of HAPC-14) VH: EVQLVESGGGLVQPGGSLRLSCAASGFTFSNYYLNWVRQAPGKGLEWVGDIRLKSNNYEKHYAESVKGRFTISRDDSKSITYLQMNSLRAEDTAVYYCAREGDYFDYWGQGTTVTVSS VL: DIQLTQSPSSLSASVGDRVTITCRASESVDSFGATFMHWYQQKPGKAPKLLIYLASNLGSGVPSRFSGSGSGTDFTLTISSLQPEDFATYYCQQNNEDPYTFGQGTKLEIK", 0.492),
    ("HAPC-14-R1-2L4-B2 (Fab, V domains shown, Single-site mutant Fab of HAPC-14) VH: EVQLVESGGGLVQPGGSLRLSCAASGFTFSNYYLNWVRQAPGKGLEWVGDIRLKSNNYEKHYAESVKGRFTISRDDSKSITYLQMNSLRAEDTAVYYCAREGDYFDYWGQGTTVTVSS VL: DIQLTQSPSSLSASVGDRVTITCRASESVDSFGATFMHWYQQKPGKAPKLLIYLASWLESGVPSRFSGSGSGTDFTLTISSLQPEDFATYYCQQNNEDPYTFGQGTKLEIK", 0.662),
    ("HAPC-14-R1-3H4-C5 (Fab, V domains shown, Single-site mutant Fab of HAPC-14; inferred from the clone name (3H4 = VH CDR3, 4th residue, same site as Y104T)) VH: EVQLVESGGGLVQPGGSLRLSCAASGFTFSNYYLNWVRQAPGKGLEWVGDIRLKSNNYEKHYAESVKGRFTISRDDSKSITYLQMNSLRAEDTAVYYCAREGDSFDYWGQGTTVTVSS VL: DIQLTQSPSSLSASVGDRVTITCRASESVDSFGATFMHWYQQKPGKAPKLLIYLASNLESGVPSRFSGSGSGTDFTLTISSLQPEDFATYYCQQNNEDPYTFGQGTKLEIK", 0.328),
]

The record that follows has no Bmax shown yet.
Using the record for HAPC-14-R1-2H6-C2 (Fab, V domains shown, Single-site mutant Fab of HAPC-14) VH: EVQLVESGGGLVQPGGSLRLSCAASGFTFSNYYLNWVRQAPGKGLEWVGDIRLKKNNYEKHYAESVKGRFTISRDDSKSITYLQMNSLRAEDTAVYYCAREGDYFDYWGQGTTVTVSS VL: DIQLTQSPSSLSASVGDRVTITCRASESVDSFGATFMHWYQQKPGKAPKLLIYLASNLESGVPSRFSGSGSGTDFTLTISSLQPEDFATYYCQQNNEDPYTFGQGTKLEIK , state its measured Bmax. 0.262
